Where do the numbers come from? From PubChem BioAssay AID2060353.

Here the recorded viability, T/C is given for each entry.
# Test system: 521955-158-R2-J5-PDC spheroids with stroma, growth inhibition
# TEST_SUMMARY: Anticancer human tumor 521955-158-R2-J5-PDC patient-derived pancreatic carcinoma cell line growth inhibition [TAK]
# TEST_CONDITIONS: second compound 9.49 µM; first compound 0.0316 µM; hits give low values
# Procedure: Combinatorial screen of targeted agents with TAK-243 and ipatasertib in multi-cell type tumor spheroids […] Compounds. […] If the clinical Cmax for an agent had not been determined, the highest concentration tested was 10 microM. NCI60 Cell Culture. […] The optimal seeding densities for each of the cell lines at each time point assessed were determined prior to performing the concentration response studies. […]
# output: bare number, implied unit %

Past entries and their recorded results:
COMPOUND	UNIT_ANNOTATION	viability, T/C
COc1c(OCCCN2CCOCC2)ccc2c3n(c(=NC(=O)c4cnc(N)nc4)nc12)CCN3 + CC(C)NCC(C(=O)N1CCN(c2ncnc3c2C(C)CC3O)CC1)c1ccc(Cl)cc1	%	12.8
CC(C)n1nc(-c2ccc3oc(N)nc3c2)c2c(N)ncnc21 + CC(C)NCC(C(=O)N1CCN(c2ncnc3c2C(C)CC3O)CC1)c1ccc(Cl)cc1	%	29.1
CC(C)CC(NC(=O)CNC(=O)c1cc(Cl)ccc1Cl)B1OC(=O)CC(CC(=O)O)(C(=O)O)O1 (stereo unspecified) + CC(C)NCC(C(=O)N1CCN(c2ncnc3c2C(C)CC3O)CC1)c1ccc(Cl)cc1	%	35.7

Q) Sample COC1CC2CCC(C)C(O)(O2)C(=O)C(=O)N2CCCCC2C(=O)OC(C(C)CC2CCC(OCCO)C(OC)C2)CC(=O)C(C)C=C(C)C(O)C(OC)C(=O)C(C)CC(C)C=CC=CC=C1C (stereo unspecified) + CC(C)NCC(C(=O)N1CCN(c2ncnc3c2C(C)CC3O)CC1)c1ccc(Cl)cc1 — what was its viability, T/C?
A) 60.9

Q) Sample CC(C)(C)c1nc(-c2cccc(NS(=O)(=O)c3c(F)cccc3F)c2F)c(-c2ccnc(N)n2)s1 + CC(C)NCC(C(=O)N1CCN(c2ncnc3c2C(C)CC3O)CC1)c1ccc(Cl)cc1 — what was its viability, T/C?
A) 92.3

Q) Sample Cc1nc(NC(=O)N2CCCC2C(N)=O)sc1-c1ccnc(C(C)(C)C(F)(F)F)c1 (stereo unspecified) + CC(C)NCC(C(=O)N1CCN(c2ncnc3c2C(C)CC3O)CC1)c1ccc(Cl)cc1 — what was its viability, T/C?
A) 70.7

* * *

# Test system: 521955-158-R2-J5-PDC spheroids with stroma, growth inhibition
# TEST_SUMMARY: Anticancer human tumor 521955-158-R2-J5-PDC cell line growth inhibition [TAK]; active means viability on the fitted dose curve at most 10% of control; inactive means the rest
# TEST_CONDITIONS: second compound 30 µM; first compound 1 µM
API: response.call in active, inactive

Completed entries (count: 3):
COMPOUND	GROUP
CC(C)(C)c1nc(-c2cccc(NS(=O)(=O)c3c(F)cccc3F)c2F)c(-c2ccnc(N)n2)s1 + CC(C)NCC(C(=O)N1CCN(c2ncnc3c2C(C)CC3O)CC1)c1ccc(Cl)cc1	inactive
Cc1nc(NC(=O)N2CCCC2C(N)=O)sc1-c1ccnc(C(C)(C)C(F)(F)F)c1 (centres undefined) + CC(C)NCC(C(=O)N1CCN(c2ncnc3c2C(C)CC3O)CC1)c1ccc(Cl)cc1	inactive
CCCS(=O)(=O)Nc1ccc(F)c(C(=O)c2c[nH]c3ncc(-c4ccc(Cl)cc4)cc23)c1F + CC(C)NCC(C(=O)N1CCN(c2ncnc3c2C(C)CC3O)CC1)c1ccc(Cl)cc1	inactive

Q) Record lookup: outcome of this test for COc1c(OCCCN2CCOCC2)ccc2c3n(c(=NC(=O)c4cnc(N)nc4)nc12)CCN3 + CC(C)NCC(C(=O)N1CCN(c2ncnc3c2C(C)CC3O)CC1)c1ccc(Cl)cc1 ?
A) active

* * *

Here the recorded viability, T/C is given for each entry.
# Test system: 521955-158-R2-J5-PDC spheroids with stroma, growth inhibition
# TEST_SUMMARY: Anticancer human tumor 521955-158-R2-J5-PDC cell line growth inhibition [TAK];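 further: spheroids exposed to drugs for seven days before readout; 100% = DMSO vehicle control viability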
# TEST_CONDITIONS: second compound 3 µM; first compound 0.001 µM; hits give low values
# output: bare number, implied unit %

COMPOUND	viability, T/C (%)
CC(C)n1nc(-c2ccc3oc(N)nc3c2)c2c(N)ncnc21 + CC(C)NCC(C(=O)N1CCN(c2ncnc3c2C(C)CC3O)CC1)c1ccc(Cl)cc1	77.8

Q) Sample CC(C)CC(NC(=O)CNC(=O)c1cc(Cl)ccc1Cl)B1OC(=O)CC(CC(=O)O)(C(=O)O)O1 (centres undefined) + CC(C)NCC(C(=O)N1CCN(c2ncnc3c2C(C)CC3O)CC1)c1ccc(Cl)cc1 — what was its viability, T/C?
A) 78

Q) Sample COC1CC2CCC(C)C(O)(O2)C(=O)C(=O)N2CCCCC2C(=O)OC(C(C)CC2CCC(OCCO)C(OC)C2)CC(=O)C(C)C=C(C)C(O)C(OC)C(=O)C(C)CC(C)C=CC=CC=C1C (centres undefined) + CC(C)NCC(C(=O)N1CCN(c2ncnc3c2C(C)CC3O)CC1)c1ccc(Cl)cc1 — what was its viability, T/C?
A) 98.3

Q) Sample CC(C)CC(NC(=O)C(Cc1ccccc1)NC(=O)c1cnccn1)B(O)O (centres undefined) + CC(C)NCC(C(=O)N1CCN(c2ncnc3c2C(C)CC3O)CC1)c1ccc(Cl)cc1 — what was its viability, T/C?
A) 78.2

* * *

# System: 521955-158-R2-J5-PDC spheroids with stroma, growth inhibition
# TEST_SUMMARY: Anticancer human tumor 521955-158-R2-J5-PDC cell line growth inhibition [TAK]; active = viability on the fitted dose curve at most 10% of control; inactive = the rest;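 further: spheroids exposed to drugs for seven days before readout; 100% = DMSO vehicle control viability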
# TEST_CONDITIONS: second compound 3 µM; first compound 1 µM
API: response.call in active, inactive

Completed entries (count: 2):
MOLECULE	GROUP
COc1c(OCCCN2CCOCC2)ccc2c3n(c(=NC(=O)c4cnc(N)nc4)nc12)CCN3 + CC(C)NCC(C(=O)N1CCN(c2ncnc3c2C(C)CC3O)CC1)c1ccc(Cl)cc1	active
CC(C)(C)c1nc(-c2cccc(NS(=O)(=O)c3c(F)cccc3F)c2F)c(-c2ccnc(N)n2)s1 + CC(C)NCC(C(=O)N1CCN(c2ncnc3c2C(C)CC3O)CC1)c1ccc(Cl)cc1	inactive

Q) Record lookup: outcome of this test for Cc1nc(NC(=O)N2CCCC2C(N)=O)sc1-c1ccnc(C(C)(C)C(F)(F)F)c1 (centres undefined) + CC(C)NCC(C(=O)N1CCN(c2ncnc3c2C(C)CC3O)CC1)c1ccc(Cl)cc1 ?
A) inactive

Q) Record lookup: outcome of this test for CCCS(=O)(=O)Nc1ccc(F)c(C(=O)c2c[nH]c3ncc(-c4ccc(Cl)cc4)cc23)c1F + CC(C)NCC(C(=O)N1CCN(c2ncnc3c2C(C)CC3O)CC1)c1ccc(Cl)cc1 ?
A) inactive

* * *

# Tested on: 521955-158-R2-J5-PDC spheroids with stroma, growth inhibition
# TEST_SUMMARY: Anticancer human tumor 521955-158-R2-J5-PDC cell line growth inhibition [TAK];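 further: spheroids exposed to drugs for seven days before readout; 100% = DMSO vehicle control viability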
# TEST_CONDITIONS: second compound 0.949 µM; first compound 0.01 µM; hits give low values
# Method: Combinatorial screen of targeted agents with TAK-243 and ipatasertib in multi-cell type tumor spheroids […] Compounds. […] If the clinical Cmax for an agent had not been determined, the highest concentration tested was 10 microM. NCI60 Cell Culture. […] The optimal seeding densities for each of the cell lines at each time point assessed were determined prior to performing the concentration response studies. […]
Criterion: viability, T/C strictly less than 50%. Met: criterion met. Not met: criterion not met.

Completed entries (count: 3):
COMPOUND	GROUP
CC(C)CC(NC(=O)C(Cc1ccccc1)NC(=O)c1cnccn1)B(O)O (stereo not given) + CC(C)NCC(C(=O)N1CCN(c2ncnc3c2C(C)CC3O)CC1)c1ccc(Cl)cc1	criterion met
CC(C)CC(NC(=O)CNC(=O)c1cc(Cl)ccc1Cl)B1OC(=O)CC(CC(=O)O)(C(=O)O)O1 (stereo not given) + CC(C)NCC(C(=O)N1CCN(c2ncnc3c2C(C)CC3O)CC1)c1ccc(Cl)cc1	criterion not met
CC(C)n1nc(-c2ccc3oc(N)nc3c2)c2c(N)ncnc21 + CC(C)NCC(C(=O)N1CCN(c2ncnc3c2C(C)CC3O)CC1)c1ccc(Cl)cc1	criterion not met

Q) Regarding COC1CC2CCC(C)C(O)(O2)C(=O)C(=O)N2CCCCC2C(=O)OC(C(C)CC2CCC(OCCO)C(OC)C2)CC(=O)C(C)C=C(C)C(O)C(OC)C(=O)C(C)CC(C)C=CC=CC=C1C (stereo not given) + CC(C)NCC(C(=O)N1CCN(c2ncnc3c2C(C)CC3O)CC1)c1ccc(Cl)cc1 , kindly confirm whether its viability, T/C is beneath 50%.
A) criterion not met

* * *

# System: 521955-158-R2-J5-PDC spheroids with stroma, growth inhibition
# TEST_SUMMARY: Anticancer human tumor 521955-158-R2-J5-PDC cell line growth inhibition [TAK];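 further: spheroids exposed to drugs for seven days before readout; 100% = DMSO vehicle control viability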
# TEST_CONDITIONS: second compound 30 µM; first compound 0.001 µM; hits give low values
OUTCOME_MEASURE: viability, T/C (%)
# output: bare number, implied unit %

Past entries and their recorded results:
MOLECULE	UNIT_ANNOTATION	viability, T/C
COC1CC2CCC(C)C(O)(O2)C(=O)C(=O)N2CCCCC2C(=O)OC(C(C)CC2CCC(OCCO)C(OC)C2)CC(=O)C(C)C=C(C)C(O)C(OC)C(=O)C(C)CC(C)C=CC=CC=C1C (centres undefined) + CC(C)NCC(C(=O)N1CCN(c2ncnc3c2C(C)CC3O)CC1)c1ccc(Cl)cc1	%	42.2
CC(C)CC(NC(=O)C(Cc1ccccc1)NC(=O)c1cnccn1)B(O)O (centres undefined) + CC(C)NCC(C(=O)N1CCN(c2ncnc3c2C(C)CC3O)CC1)c1ccc(Cl)cc1	%	56.7
CC(C)n1nc(-c2ccc3oc(N)nc3c2)c2c(N)ncnc21 + CC(C)NCC(C(=O)N1CCN(c2ncnc3c2C(C)CC3O)CC1)c1ccc(Cl)cc1	%	47.1

Note: attention shifts to another entry.
Q) Given the entry CC(C)CC(NC(=O)CNC(=O)c1cc(Cl)ccc1Cl)B1OC(=O)CC(CC(=O)O)(C(=O)O)O1 (centres undefined) + CC(C)NCC(C(=O)N1CCN(c2ncnc3c2C(C)CC3O)CC1)c1ccc(Cl)cc1 , what viability, T/C was observed with 521955-158-R2-J5-PDC spheroids with stroma, growth inhibition?
A) 69.1
